We begin with a simple list: items and their reported inhibition at 37.5 µM.
# system: PARK7 (Homo sapiens, UniProt Q99497)
# Sequence (Q99497 whole entry): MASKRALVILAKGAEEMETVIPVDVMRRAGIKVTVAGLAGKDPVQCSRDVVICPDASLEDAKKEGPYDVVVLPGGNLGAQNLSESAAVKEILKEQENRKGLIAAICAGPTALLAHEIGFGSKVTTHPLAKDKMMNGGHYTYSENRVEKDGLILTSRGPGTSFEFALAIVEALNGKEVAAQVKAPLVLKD
# run.description: DiFMUAc PARK7 activity assay
# Type: biochemical
# Set-up: GST (N, cleaved yes); made in house; host or cells: E. coli BL21(DE3) Rosetta2
# condition.info: 37.5 µM compound, PARK7 0.1 μM, 2 h preincubation, DiFMUAc 300 μM; read-out: DiFMuAc assay %Inhibiton (37.5 µM)
# unit: % | format: bare number

Some molecules with known inhibition at 37.5 µM results, for comparison:
CC1=NOC(=O)C1CC(=O)O (stereo not drawn) :: 100
CCC(C)c1ccc(NC(=O)CCl)cc1 (stereo not drawn) :: 95.2
CC(C)(C)c1ccc(NC(=O)CCl)cc1 :: 94.2
O=C(CCl)c1ccc(F)c(C(=O)CCl)c1 :: 98.5
CC1CCC(N(C)C(=O)CCl)CC1 (stereo not drawn) :: 94.6
CC1CCc2ccccc2N1C(=O)CCl (stereo not drawn) :: 79.6
O=C(O)c1csc(C(=O)CCl)c1 :: 97.6
CCN(c1ccc(NC(=O)CCl)cc1)C(C)C :: 94.9

Per the records, this molecule ( O=C(CCl)C1CCOCC1 ) has inhibition at 37.5 µM equal to 95.5
